Here the recorded OD490 is given for each entry.
Biological target: T1, M12
T1 construct: also called PD1 mutant M12
Experiment: scFv-phage ELISA

| Binder | OD490 |
| --- | --- |
| PD1-42G4 (antibody, V domains shown, scFv-phage in the screening ELISA; later whole IgG) VH: QVQLVESGGGLVKPGGSLRLSCAASGFTFSDYYMSWIRQAPGKGLEWVSDISASGNSIYYADSVKRRFTISRDNSKNSLYLQMNSLRAEDTAVYYCVTSGPFGEFRNWGLGTLVTVSS VL: DIQMTQSPSSLSASVGDRVTTTCRASQGISSYLAWYQQKPGKAPKLLIYAASTLQSGVPSRFSGSGSGTDFTLTISSLQPEDFATYFCQQSYTSPRTFGQGTKLDIK | 2.7 |
| PD1-45D6 (antibody, V domains shown, scFv-phage in the screening ELISA; whole IgG in the other assays) VH: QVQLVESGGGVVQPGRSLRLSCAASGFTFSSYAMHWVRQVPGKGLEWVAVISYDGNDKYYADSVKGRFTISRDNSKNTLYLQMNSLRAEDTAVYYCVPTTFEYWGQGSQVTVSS VL: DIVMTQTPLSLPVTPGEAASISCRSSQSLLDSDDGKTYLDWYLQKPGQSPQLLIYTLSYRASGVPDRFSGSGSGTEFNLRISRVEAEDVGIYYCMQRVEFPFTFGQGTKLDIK | 3.9 |
| PD1-45F4 (antibody, V domains shown, scFv-phage in the screening ELISA; later whole IgG) VH: QMQLVESGGGLVQPGRSLRLSCAASGFTFDDYAMHWVRQAPGQGLEWVSGISWNSNNIKYADSVKGRFTISRDNSKNSLYLQMNSLRAEDTAVYYCARGALTPLDVWGQGTPVTVSS VL: SYELTQAPSLSVSPGQTANIICSGDNLRTKYVSWYQQKPGQSPLLVIYQDTRRPSGIPARFSGSNSGNTATLTISGTQTRDESTYYCMTWDVDTTSMIFGGGTKLTVL | 3.7 |
| PD1-51D9 (antibody, V domains shown, scFv-phage in the screening ELISA; whole IgG in the other assays) VH: QVQLVESGAEVKKPGASVKLSCKASGYTFSSYWMHWVRQAPGQRLEWMGEINPGNGHTNYNEKFKSRVTITVDKSASTAYMELSSLRSEDTAVYYCAREGDGSYWGYFDSWGQGTPITVSS VL: DIVMTQTPLSLPVTPGEPASISCRSSQSLLHSNGNNYLDWYLQKPGQSPQLLIYLGSYRASGVPDRFSGSGSGTDFTLKISRVEAEDVGLYYCMQGLQIPSTFGPGTKVDIK | 0.3 |
| PD1-52E8 (antibody, V domains shown, scFv-phage in the screening ELISA; whole IgG in the other assays) VH: QVQLVQSGGNLVQPGRSLRLSCAASGFTFDDYAMHWVRQAPGKGLEWVSGISWNSGTPGYADSVQGRFTISRDNAKNSLYLQMNSLRAEDTAVYYCARGHNYLDSSYYDYWGQGTLVTVSS VL: SYELTQPLSLSVAPGQTARITCSGDALSKEYSYWYQQKPGQAPVLVMYKDSERPSGIPERFSGSSSGTTVTLTISGVQAEDEADYYCQSVDSSDTSVVFGGGTKLTVL | 3.2 |
| PD1-44B5 (antibody, V domains shown, scFv-phage in the screening ELISA; later whole IgG) VH: QVQLVESGGGVVQPGRSLRLSCAASGFTFSSYAMHWVRQAPGKGLEWVAVISYDGSNKYYADSVKGRFTISRDNSKNTLYLQMNSLRAEDTAVYYCARLMHTFSVQYFLDVWGQGTTVTVSS VL: QFVLTQSPSASGTPGQNIVISCSASTFNIGTTTVNWYQRLPGTAPKLLIYNYDQRPSGVPDRFSGSKSGTSASLAISGLQSEDEADYYCAAWDDSLNAWLFGGGTKLTVL | 3.6 |
| PD1-32A6 (antibody, V domains shown, scFv-phage in the screening ELISA; later whole IgG) VH: QVQLVQSGAEVKKPGSSVKVSCKASGDTFTRNAVSWVRQAPGEGLEWMADIIPIFGSANYAQKFQGRLTLTADVSTSTAYMELSSLRSEDTAVYYCARTIEGAFDIWGQGTMVTVSS VL: DIQMTQSPSSVSASVGDRVTITCRASQGIVSWLAWYQQKPGKAPRLLIYRASDLETGVPSRFSGSGSGTDFTLTISSLQPEDVATYYCQQADSFPLTFGGGTKVEIK | 2.7 |
